Test system: SKN-SH doxorubicin-resistant cells
Test: Viable cell count of SKN-SH doxorubicin-resistant cells with other chemotherapeutic agents
Details: Homo sapiens, SK-N-SH, 72 h, read-out: number of viable cells, chemotherapeutic agent alone at 10^−7M
Recorded viability at 0.1 µM for the following compounds
Experimental Endpoint: viability at 0.1 µM

compound=CC/C(=C(\c1ccccc1)c1ccc(OCCN(C)C)cc1)c1ccccc1 result=~60%
compound="O=P1(N(CCCl)CCCl)NCCCO1 (centres unmarked) [cyclophosphamide]" result=~95%
compound="COc1cc([C@@H]2c3cc4c(cc3[C@@H](O[C@@H]3O[C@@H]5CO[C@@H](C)O[C@H]5[C@H](O)[C@H]3O)[C@H]3COC(=O)[C@H]23)OCO4)cc(OC)c1O [etoposide]" result=~95%
compound=N[C@@H](Cc1ccc(N(CCCl)CCCl)cc1)C(=O)O result=~30%
compound=O=C1c2c(O)ccc(O)c2C(=O)c2c(NCCNCCO)ccc(NCCNCCO)c21 result=~10%
